Attribute: Vmax
Substrate: [O]=[Cr](=[O])([OH])[OH]
assay-procedure: purified protein
measurement-setup: 100 µM NADH, 5 µM enzyme, 50 mM Tris-HCl, 100 mM NaCl, pH 7.4, 37°C, aerobic
Please make sure the unit comes right after the number.

Consider the worked cases shown below.
Gluconacetobacter hansenii chromate reductase (Gh-ChrR) (enzyme, Gluconacetobacter hansenii ATCC 23769, Gh-ChrR, NAD(P)H-dependent FMN reductase from Gluconacetobacter hansenii ATCC 23769 (ZP_06834583); 193 native residues; codon-optimised synthetic gene in pJexpress411; Monomer 21.3 kDa (193 native residues plus a six-residue C-terminal poly-histidine tag); In the crystal 5-6 N-terminal and 7-9 C-terminal residues are not seen; also called putative chromate reductase; source: E. coli BL21(DE3), …) MTTTSPLHFVTLLGSLRKASFNAAVARALPEIAPEGIAITPLGSIGTFPHYSQDVQEEGFPAPVLTMAQQIATADAVVIVTPEYNYSVPGVLKNAIDWLSRVSPQPLAGKPVALVTASPGMIGGARAQYHLRQSLVFLDAYVLNRPEAMIGQVTGKVDAQTLELSDVATREFLARQLDALAALARTLSPRAIT = 0.75 µmol/min/mg
Gh-ChrR (Novacetimonas hansenii ATCC 23769; N85A) (protein) MTTTSPLHFVTLLGSLRKASFNAAVARALPEIAPEGIAITPLGSIGTFPHYSQDVQEEGFPAPVLTMAQQIATADAVVIVTPEYAYSVPGVLKNAIDWLSRVSPQPLAGKPVALVTASPGMIGGARAQYHLRQSLVFLDAYVLNRPEAMIGQVTGKVDAQTLELSDVATREFLARQLDALAALARTLSPRAIT = 0.16 µmol/min/mg
Gh-ChrR (Novacetimonas hansenii ATCC 23769; R101A) (protein) MTTTSPLHFVTLLGSLRKASFNAAVARALPEIAPEGIAITPLGSIGTFPHYSQDVQEEGFPAPVLTMAQQIATADAVVIVTPEYNYSVPGVLKNAIDWLSAVSPQPLAGKPVALVTASPGMIGGARAQYHLRQSLVFLDAYVLNRPEAMIGQVTGKVDAQTLELSDVATREFLARQLDALAALARTLSPRAIT = 0.24 µmol/min/mg

Requested field: Vmax. Item: Gh-ChrR (Novacetimonas hansenii ATCC 23769; S118A) (protein) MTTTSPLHFVTLLGSLRKASFNAAVARALPEIAPEGIAITPLGSIGTFPHYSQDVQEEGFPAPVLTMAQQIATADAVVIVTPEYNYSVPGVLKNAIDWLSRVSPQPLAGKPVALVTAAPGMIGGARAQYHLRQSLVFLDAYVLNRPEAMIGQVTGKVDAQTLELSDVATREFLARQLDALAALARTLSPRAIT 0.9 µmol/min/mg

The reported numbers originate from paper PMC3412864.
